target: human native muscle receptors (Homo sapiens, UniProt P02708+P07510+Q07001); construct: human native muscle-type nicotinic receptors (likely α1β1γδ); endogenous in cells; assay: Ca flux assay, TE-671 cells
Sequence (P02708 21-457): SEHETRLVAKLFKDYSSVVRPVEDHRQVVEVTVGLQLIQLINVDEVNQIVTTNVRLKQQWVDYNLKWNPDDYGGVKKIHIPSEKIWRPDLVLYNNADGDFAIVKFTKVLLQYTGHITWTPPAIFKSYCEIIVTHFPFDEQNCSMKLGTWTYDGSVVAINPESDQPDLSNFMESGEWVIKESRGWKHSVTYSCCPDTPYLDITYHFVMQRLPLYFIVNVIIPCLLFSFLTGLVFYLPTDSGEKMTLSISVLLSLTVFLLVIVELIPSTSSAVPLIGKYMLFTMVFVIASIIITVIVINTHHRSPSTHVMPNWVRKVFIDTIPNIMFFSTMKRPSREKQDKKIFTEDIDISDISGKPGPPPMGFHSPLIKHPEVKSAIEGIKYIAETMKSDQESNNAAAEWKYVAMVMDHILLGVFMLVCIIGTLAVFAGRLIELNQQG
Sequence (P11230 24-501 partner): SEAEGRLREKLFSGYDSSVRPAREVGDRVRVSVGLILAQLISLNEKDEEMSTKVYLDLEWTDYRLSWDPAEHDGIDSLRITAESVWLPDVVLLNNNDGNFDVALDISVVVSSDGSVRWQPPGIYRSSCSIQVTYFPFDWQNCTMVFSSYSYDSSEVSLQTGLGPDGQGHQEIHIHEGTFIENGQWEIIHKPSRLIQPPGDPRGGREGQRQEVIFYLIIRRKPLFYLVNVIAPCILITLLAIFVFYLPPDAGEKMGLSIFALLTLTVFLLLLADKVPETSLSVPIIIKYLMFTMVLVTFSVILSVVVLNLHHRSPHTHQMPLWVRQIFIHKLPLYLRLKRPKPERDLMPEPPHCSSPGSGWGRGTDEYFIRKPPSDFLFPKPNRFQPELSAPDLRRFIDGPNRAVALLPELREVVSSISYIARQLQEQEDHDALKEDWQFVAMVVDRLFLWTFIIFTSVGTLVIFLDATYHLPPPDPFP
Sequence (P07510 23-517): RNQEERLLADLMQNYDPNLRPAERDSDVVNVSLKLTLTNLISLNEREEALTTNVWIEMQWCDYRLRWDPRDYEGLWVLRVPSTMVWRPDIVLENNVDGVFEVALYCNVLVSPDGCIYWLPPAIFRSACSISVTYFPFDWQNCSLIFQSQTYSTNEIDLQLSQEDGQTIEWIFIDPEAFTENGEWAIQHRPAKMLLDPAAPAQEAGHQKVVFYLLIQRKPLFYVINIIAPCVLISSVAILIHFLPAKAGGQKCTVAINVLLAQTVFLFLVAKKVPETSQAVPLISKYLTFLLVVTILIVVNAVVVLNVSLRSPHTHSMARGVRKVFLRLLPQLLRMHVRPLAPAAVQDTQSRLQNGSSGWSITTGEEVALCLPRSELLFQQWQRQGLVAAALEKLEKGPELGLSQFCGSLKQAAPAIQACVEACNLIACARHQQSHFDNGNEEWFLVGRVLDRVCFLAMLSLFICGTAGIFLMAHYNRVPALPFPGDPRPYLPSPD
Sequence (Q07001 22-517): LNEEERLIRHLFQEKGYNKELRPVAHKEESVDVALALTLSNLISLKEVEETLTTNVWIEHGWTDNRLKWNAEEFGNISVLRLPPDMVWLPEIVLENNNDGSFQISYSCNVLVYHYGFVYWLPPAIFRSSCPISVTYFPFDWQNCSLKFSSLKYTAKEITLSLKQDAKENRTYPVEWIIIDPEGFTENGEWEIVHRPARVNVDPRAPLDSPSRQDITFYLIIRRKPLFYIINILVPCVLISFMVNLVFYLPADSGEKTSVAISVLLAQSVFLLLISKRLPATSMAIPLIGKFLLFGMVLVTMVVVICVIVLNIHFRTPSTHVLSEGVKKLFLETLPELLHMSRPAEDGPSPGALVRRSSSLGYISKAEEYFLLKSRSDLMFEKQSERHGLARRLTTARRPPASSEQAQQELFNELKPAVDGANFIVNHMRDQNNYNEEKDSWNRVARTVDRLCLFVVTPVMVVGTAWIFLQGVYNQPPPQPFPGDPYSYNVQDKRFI
MEASURE: EC50 (µM)

>>> observed_value("C(=C\\[C@H]1CCNC1)/c1cncc(OC2CCOCC2)c1")
13

###

molecular target: human native ganglion receptors (Homo sapiens, UniProt P30926+P32297); construct: human native ganglion-type nicotinic receptors (likely α3β4); endogenous in cells; assay: Ca flux assay, SH-SY5Y cells
Sequence (P32297 32-505): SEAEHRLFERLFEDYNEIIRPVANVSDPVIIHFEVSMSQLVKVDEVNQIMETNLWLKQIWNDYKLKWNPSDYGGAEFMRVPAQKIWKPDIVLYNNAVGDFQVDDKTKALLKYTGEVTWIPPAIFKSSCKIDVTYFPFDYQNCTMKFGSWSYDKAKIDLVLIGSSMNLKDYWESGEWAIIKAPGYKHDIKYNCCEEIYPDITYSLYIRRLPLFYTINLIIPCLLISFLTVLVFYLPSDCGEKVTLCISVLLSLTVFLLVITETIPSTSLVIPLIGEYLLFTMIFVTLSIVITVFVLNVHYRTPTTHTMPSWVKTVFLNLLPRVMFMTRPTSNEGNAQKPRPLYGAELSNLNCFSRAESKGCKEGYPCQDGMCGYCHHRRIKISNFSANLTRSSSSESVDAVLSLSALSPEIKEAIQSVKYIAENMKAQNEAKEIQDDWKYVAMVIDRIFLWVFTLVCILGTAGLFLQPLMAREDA
Sequence (P30926 22-498): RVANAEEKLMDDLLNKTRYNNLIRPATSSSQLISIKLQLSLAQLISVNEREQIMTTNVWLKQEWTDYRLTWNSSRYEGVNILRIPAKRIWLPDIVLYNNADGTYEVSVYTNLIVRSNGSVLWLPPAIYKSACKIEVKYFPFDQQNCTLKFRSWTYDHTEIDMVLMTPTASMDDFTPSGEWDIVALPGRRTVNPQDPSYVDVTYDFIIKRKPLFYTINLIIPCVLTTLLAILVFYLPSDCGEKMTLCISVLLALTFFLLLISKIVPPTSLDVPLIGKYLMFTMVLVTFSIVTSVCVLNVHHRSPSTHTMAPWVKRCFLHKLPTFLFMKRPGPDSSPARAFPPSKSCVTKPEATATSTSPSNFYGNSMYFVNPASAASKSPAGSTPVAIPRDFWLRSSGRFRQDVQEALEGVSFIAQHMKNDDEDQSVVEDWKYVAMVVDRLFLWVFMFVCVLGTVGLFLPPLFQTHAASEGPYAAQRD
MEASURE: EC50

>>> observed_value("C(=C\\[C@H]1CCNC1)/c1cncc(OC2CCOCC2)c1")
"11 µM"

###

target: hERG (Homo sapiens, UniProt Q12809)
pIC50: −log10 of the molar value.
MEASURE: pIC50

>>> observed_value("C(=C\\[C@H]1CCNC1)/c1cncc(OC2CCOCC2)c1 [Compound A]")
4.08

###

target: UniProt P05177; assay: biochemical; format: in vitro ADME
Sequence (P05177 whole entry): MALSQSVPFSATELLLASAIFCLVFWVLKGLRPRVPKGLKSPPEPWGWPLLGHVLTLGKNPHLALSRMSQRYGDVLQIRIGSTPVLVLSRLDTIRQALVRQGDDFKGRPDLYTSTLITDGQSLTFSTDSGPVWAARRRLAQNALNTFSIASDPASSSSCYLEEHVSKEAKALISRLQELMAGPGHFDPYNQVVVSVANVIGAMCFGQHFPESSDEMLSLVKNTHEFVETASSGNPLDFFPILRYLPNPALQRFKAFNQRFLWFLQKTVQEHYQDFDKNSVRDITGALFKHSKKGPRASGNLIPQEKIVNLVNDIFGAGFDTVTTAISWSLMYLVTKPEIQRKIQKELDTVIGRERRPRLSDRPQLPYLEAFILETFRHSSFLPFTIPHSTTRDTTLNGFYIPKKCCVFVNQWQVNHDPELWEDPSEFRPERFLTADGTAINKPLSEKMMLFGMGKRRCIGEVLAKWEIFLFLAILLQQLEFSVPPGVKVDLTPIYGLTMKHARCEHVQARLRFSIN
MEASURE: IC50

>>> observed_value("C(=C\\[C@H]1CCNC1)/c1cncc(OC2CCOCC2)c1")
"> 20 µM"

###

target: human native ganglion-type nicotinic receptors (likely α3β4) (Homo sapiens, UniProt P30926+P32297); construct: human native ganglion-type nicotinic receptors (likely α3β4); endogenous in cells; assay: [3H]epibatidine binding, SH-SY5Y membranes
MEASURE: Ki (µM)

>>> observed_value("C(=C\\[C@H]1CCNC1)/c1cncc(OC2CCOCC2)c1 [Compound A]")
3.4

###

target: rat native α7 receptors (Rattus norvegicus); construct: rat native α7 receptors in rat hippocampal membranes; from tissue; host or cells: rat hippocampus (female Sprague-Dawley); assay: [3H]MLA binding, rat hippocampal membranes; settings: read-out: Rat hippocampus (α7) Ki; [3H]methyllycaconitine (MLA), rat hippocampal membranes
pKi: −log10 of the molar value.
MEASURE: pKi

>>> observed_value("C(=C\\[C@H]1CCNC1)/c1cncc(OC2CCOCC2)c1")
"< 5.00"

###

target: human native muscle-type nicotinic receptors (likely α1β1γδ) (Homo sapiens, UniProt P02708+P07510+Q07001); construct: human native muscle-type nicotinic receptors (likely α1β1γδ); endogenous in cells; assay: [3H]epibatidine binding, TE-671 membranes
MEASURE: Ki (µM)

>>> observed_value("C(=C\\[C@H]1CCNC1)/c1cncc(OC2CCOCC2)c1")
25

###

Molecular target: CYP2C19 (Homo sapiens)
Assay: biochemical
Format: in vitro ADME
Method: Inhibition of CYP1A2, CYP2C9, CYP2C19, CYP2D6 and CYP3A4 catalytic activity by (R)-3-((E)-2-(pyrrolidin-3-yl)vinyl)-5-(tetrahydropyran-4-yloxy)pyridine or a slat thereof was assessed using a fluorogenic CYP assay. […] Fluorescence intensity at selected wavelengths was used as a measure of enzyme activity. Decreased fluorescence in the presence of (R)-3-((E)-2-(pyrrolidin-3-yl)vinyl)-5-(tetrahydropyran-4-yloxy)pyridine or a sat thereof was an indication of inhibition. […]
pIC50: −log10 of the molar value.
MEASURE: pIC50

>>> observed_value("C(=C\\[C@H]1CCNC1)/c1cncc(OC2CCOCC2)c1")
"< 4.70"

###

tested on: CYP1A2, CYP2C9, CYP2C19, CYP2D6, CYP3A4 (5 major CYPs); assay: in vitro; type: in vitro ADME; details: human
MEASURE: IC50

>>> observed_value("C(=C\\[C@H]1CCNC1)/c1cncc(OC2CCOCC2)c1")
"> 20 µM"

###

molecular target: rat native α7 receptors (Rattus norvegicus); construct: rat native α7 receptors in rat hippocampal membranes; from tissue; host or cells: rat hippocampus (female Sprague-Dawley); test: [3H]MLA binding, rat hippocampal membranes
MEASURE: Ki

>>> observed_value("C(=C\\[C@H]1CCNC1)/c1cncc(OC2CCOCC2)c1")
"> 10 µM"

###

target: CYP2C9 (Homo sapiens, UniProt P11712)
Sequence (P11712 whole entry): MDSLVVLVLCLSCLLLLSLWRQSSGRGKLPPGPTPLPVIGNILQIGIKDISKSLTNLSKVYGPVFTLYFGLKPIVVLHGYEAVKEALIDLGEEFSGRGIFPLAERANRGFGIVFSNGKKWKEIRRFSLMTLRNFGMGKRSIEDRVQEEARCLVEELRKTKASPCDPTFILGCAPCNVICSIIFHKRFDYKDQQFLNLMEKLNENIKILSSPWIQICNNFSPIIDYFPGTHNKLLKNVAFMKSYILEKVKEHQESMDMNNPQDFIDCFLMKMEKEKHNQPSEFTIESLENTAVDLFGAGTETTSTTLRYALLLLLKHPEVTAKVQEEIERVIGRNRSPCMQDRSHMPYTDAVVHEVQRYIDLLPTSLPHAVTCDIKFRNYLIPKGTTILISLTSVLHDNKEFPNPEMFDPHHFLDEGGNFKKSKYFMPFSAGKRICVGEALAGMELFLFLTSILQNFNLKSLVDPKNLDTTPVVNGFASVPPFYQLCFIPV
pIC50: −log10 of the molar value.
MEASURE: pIC50

>>> observed_value("C(=C\\[C@H]1CCNC1)/c1cncc(OC2CCOCC2)c1")
"< 4.70"

###

target: human recombinant α4β2 nicotinic receptors (Homo sapiens, UniProt P17787+P43681); test: Radioligand binding, human recombinant α4β2 in SH-EP1 cellular membranes
pKi: −log10 of the molar value.
MEASURE: pKi

>>> observed_value("C(=C\\[C@H]1CCNC1)/c1cncc(OC2CCOCC2)c1")
8.70

###

molecular target: rat native α4β2 receptors (Rattus norvegicus, UniProt P09483+P12390); construct: rat native α4β2 receptors in rat cortical membranes; experiment: Radioligand binding, rat native α4β2 in rat cortical membranes
Sequence (P09483 31-630): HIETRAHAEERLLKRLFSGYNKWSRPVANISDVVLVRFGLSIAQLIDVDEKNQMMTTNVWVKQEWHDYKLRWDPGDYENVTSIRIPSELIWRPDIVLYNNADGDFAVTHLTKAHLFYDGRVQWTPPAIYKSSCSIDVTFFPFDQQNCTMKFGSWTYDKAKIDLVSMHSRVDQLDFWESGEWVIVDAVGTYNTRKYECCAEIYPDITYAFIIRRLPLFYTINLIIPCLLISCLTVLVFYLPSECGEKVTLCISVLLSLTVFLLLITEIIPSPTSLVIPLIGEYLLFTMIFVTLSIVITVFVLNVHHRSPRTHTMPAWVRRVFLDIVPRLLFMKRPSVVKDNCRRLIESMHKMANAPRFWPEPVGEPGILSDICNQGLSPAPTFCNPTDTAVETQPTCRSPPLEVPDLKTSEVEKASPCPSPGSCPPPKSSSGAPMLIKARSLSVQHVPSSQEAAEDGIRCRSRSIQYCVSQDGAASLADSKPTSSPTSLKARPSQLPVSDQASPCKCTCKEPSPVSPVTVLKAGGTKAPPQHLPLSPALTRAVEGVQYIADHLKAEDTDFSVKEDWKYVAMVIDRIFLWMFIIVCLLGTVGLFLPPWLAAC
Sequence (P12390 25-500): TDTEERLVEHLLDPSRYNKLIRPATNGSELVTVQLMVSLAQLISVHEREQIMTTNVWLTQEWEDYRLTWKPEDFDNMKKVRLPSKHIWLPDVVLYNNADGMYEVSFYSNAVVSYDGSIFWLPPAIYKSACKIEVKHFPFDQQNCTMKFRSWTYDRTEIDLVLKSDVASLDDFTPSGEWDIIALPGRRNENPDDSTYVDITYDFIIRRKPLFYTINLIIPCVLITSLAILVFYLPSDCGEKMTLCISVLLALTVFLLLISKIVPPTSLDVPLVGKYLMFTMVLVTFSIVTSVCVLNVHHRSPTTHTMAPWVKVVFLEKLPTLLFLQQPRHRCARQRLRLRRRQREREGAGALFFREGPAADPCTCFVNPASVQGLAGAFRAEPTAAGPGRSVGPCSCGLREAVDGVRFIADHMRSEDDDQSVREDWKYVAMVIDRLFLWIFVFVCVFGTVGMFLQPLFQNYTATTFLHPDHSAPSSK
pKi: −log10 of the molar value.
MEASURE: pKi

>>> observed_value("C(=C\\[C@H]1CCNC1)/c1cncc(OC2CCOCC2)c1")
8.40

The measured values listed here are drawn from patent US8153821B2.
